# Target or system: Integrin alpha-4/beta-7 (Homo sapiens, UniProt P13612+P26010)
# Sequence (P13612 whole entry): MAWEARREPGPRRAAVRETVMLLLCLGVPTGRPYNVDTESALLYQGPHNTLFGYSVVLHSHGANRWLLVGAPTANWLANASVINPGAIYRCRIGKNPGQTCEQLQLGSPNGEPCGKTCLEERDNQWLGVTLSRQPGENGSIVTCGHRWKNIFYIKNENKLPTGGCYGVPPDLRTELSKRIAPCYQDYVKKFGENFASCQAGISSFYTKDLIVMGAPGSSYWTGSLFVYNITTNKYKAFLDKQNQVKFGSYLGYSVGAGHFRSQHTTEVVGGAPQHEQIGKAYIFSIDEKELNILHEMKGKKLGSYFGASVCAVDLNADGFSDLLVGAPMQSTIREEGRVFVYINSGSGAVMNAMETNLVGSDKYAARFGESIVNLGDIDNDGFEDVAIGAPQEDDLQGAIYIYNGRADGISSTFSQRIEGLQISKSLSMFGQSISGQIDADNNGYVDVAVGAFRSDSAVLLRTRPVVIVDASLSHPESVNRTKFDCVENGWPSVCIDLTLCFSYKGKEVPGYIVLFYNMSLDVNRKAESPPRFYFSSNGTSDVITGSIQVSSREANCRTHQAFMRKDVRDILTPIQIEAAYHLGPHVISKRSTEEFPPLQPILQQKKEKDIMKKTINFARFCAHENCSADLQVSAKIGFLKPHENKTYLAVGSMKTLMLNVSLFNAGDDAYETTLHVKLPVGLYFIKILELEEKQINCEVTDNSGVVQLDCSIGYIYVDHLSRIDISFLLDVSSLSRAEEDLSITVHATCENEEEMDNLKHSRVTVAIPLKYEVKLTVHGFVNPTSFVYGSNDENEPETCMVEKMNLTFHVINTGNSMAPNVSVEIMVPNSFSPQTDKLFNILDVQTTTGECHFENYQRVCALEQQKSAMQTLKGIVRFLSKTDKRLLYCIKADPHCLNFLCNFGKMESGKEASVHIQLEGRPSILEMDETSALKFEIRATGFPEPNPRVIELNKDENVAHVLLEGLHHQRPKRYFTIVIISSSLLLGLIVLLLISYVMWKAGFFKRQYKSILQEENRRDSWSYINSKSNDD
# Sequence (P26010 whole entry): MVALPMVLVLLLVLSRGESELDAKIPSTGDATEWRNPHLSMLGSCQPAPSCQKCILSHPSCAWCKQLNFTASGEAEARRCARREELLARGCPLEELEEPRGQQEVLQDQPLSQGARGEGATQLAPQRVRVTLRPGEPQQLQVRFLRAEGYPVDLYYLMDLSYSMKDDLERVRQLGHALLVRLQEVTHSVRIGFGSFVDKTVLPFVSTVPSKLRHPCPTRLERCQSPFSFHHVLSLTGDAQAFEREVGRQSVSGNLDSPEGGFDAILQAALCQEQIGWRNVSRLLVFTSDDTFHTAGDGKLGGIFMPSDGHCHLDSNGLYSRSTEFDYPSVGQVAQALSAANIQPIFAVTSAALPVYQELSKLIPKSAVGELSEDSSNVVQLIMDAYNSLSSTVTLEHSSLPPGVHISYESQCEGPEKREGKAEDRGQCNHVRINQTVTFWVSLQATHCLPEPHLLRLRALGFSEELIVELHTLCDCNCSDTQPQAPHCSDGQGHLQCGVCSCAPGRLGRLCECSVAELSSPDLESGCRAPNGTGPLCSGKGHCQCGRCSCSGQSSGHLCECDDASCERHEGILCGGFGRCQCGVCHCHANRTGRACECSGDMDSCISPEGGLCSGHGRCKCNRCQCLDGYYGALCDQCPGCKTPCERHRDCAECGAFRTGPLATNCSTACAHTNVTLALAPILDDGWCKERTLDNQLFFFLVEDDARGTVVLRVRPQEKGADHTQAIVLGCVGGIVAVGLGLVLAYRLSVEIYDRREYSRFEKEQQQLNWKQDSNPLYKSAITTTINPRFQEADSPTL
# Method description: Inhibition of human MAdCAM1 binding to integrin alpha4beta7 receptor in human RPMI 8866 cells labeled with Calcein AM
Please respond with reported pIC50 for every item in the list.
The read-out pIC50 is expressed as -log10 of concentration in moles per litre.

Qu. Consider the compound Cc1c(-c2ccc(C[C@H](NC(=O)c3c(C(C)C)cccc3C(C)C)C(=O)O)cc2)c(=O)n(C)c(=O)n1C and give its measured pIC50.
Ans. 5.71

Qu. Similarly, Cc1c(-c2ccc(C[C@H](NC(=O)c3c(F)cccc3F)C(=O)O)cc2)c(=O)n(C)c(=O)n1C ?
Ans. 7.09

Qu. Similarly, CCn1c(C)c(-c2ccc(C[C@H](NC(=O)c3c(C)cccc3Cl)C(=O)O)cc2)c(=O)n(CC)c1=O ?
Ans. 6.79

Qu. Similarly, Cc1cccc(Cl)c1C(=O)N[C@@H](Cc1ccc(-c2c(C(F)(F)F)n(C)c(=O)n(C)c2=O)cc1)C(=O)O ?
Ans. 6.78

Qu. Similarly, Cc1c(-c2ccc(C[C@H](NC(=O)c3c(Cl)cccc3C(C)C)C(=O)O)cc2)c(=O)n(C)c(=O)n1C ?
Ans. 6.25

Qu. Similarly, CCn1c(C)c(-c2ccc(C[C@H](NC(=O)c3c(Cl)cccc3Cl)C(=O)O)cc2)c(=O)n(CC)c1=O ?
Ans. 6.91

Qu. Similarly, CCc1cccc(Cl)c1C(=O)N[C@@H](Cc1ccc(-c2c(C)n(C)c(=O)n(C)c2=O)cc1)C(=O)O ?
Ans. 6.82

Qu. Similarly, Cc1cccc(Cl)c1C(=O)N[C@@H](Cc1ccc(-c2c(C)n(C)c(=O)n(C)c2=O)cc1)C(=O)O ?
Ans. 7.24

Qu. Similarly, Cc1cc(C[C@H](NC(=O)c2c(Cl)cccc2Cl)C(=O)O)ccc1-c1c(C)n(C)c(=O)n(C)c1=O ?
Ans. 6.77

Qu. Similarly, COCCC1(C(=O)N[C@@H](Cc2ccc(-c3c(C)n(C)c(=O)n(C)c3=O)cc2)C(=O)O)CCCC1 ?
Ans. 6.49

Qu. Similarly, CCn1c(C)c(-c2ccc(C[C@H](NC(=O)C3(CCOC)CCCC3)C(=O)O)cc2)c(=O)n(CC)c1=O ?
Ans. 6.25
